TARGET OR TEST SYSTEM: T1, human uPAR displayed on the surface of MDA-MB-231 cells (human, UniProt Q03405 23-305)
T1 construct: whole, on cells; also called cell-surface uPAR; cellular uPAR
T1 sequence (Q03405 23-305): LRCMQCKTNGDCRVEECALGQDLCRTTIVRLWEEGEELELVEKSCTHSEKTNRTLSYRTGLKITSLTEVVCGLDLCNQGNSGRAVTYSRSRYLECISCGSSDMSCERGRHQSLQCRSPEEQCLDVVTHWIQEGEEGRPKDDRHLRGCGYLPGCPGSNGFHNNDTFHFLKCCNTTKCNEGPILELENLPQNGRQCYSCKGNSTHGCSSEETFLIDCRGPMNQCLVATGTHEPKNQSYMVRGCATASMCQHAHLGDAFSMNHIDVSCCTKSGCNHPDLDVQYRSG
PROCEDURE TEXT: flow cytometry on MDA-MB-231 cells

{"BINDER": "3159 HC1 + LC1 (humanized) (antibody, V domains shown, detected with anti-human Fc antibody) VH: QVTLRESGPALVKPTQTLTLTCTLSGFSLSTSGMGVSWIRQPPGKALEWLAHIYWDDDKRYSTSLKTRLTISKDASKDQVVLTMTNMDTVDTATYYCGRRVRNYFSGTSYWYFDVWGTGTLVTVSS VL: DIVMTQTPLSLSVTPGQPASISCKSSQNILHRTGNTYLEWYLQKPGQPPQLLIYKVSNRFSGVPDRFSGSGSGTDFTLKISRVEAEDVGVYYCFQGSYVPFTFGQGTKLEIK", "UNIT INFO": "µg/mL", "EC50": 0.187}
